target.of.assay: pooled human IgG (human IgG1, 2, 3 and 4)
measured.metric: Enzyme Activity Endpoint Assay: Fc (ng/µL)

{"columns": ["protein", "measured.metric", "value"],
 "data": [
  ["PRT-538 (protein) MANQEIRYSSDSEWANKKVWVYGITPPEEGAWKYSTYYLPWKKEYGWYDCNKRNPTADGMMCWAATASNLLHWWIAQNKEYIDLYGDKYKGPDKINFNGEQMFDVKEYIDPLDKPQESDIFQCFIDKSFADLSTKHEAGYGDEGINWFIHGIIPSSPAHGPTPVKLRKPYNPAGYFKDVFPRGDGVKLLSNNGDFKELGKERFNETIKDALKNKKGIGLSIGPVNVRSGHVVTMWGAEFDENGDVSYIYIADNNDRWGVGCIRYQIVYEEGGTYTCYKTEIINEDRPIPINRLVTLELGEEYWKQTNLEHHHHHH", "Enzyme Activity Endpoint Assay: Fc", 0],
  ["PRT-269 (protein) MVTSVWTKGVTPPTDFIYGEDVLHAPYKAGQGWYDITKTFNGKDDLLCGAATAGNMLHWWFDQNKEQIENYLKKHPEKQKINFNGEQMFDVKEAIDTKDSQLDSKLFEYFLEKAFPNLSTKHLGVFPDHVIDMFINGYRLSLLNHGPTPVKRGSKDPRGGIFDAVFTRGDQSKLLTNRHDLKNKTLKEISDLIKQELTEGKALGISHTYANVRINHVINLWGADFDAEGNLEAIAVTDSDSNASIGMKKYFVGVNSSGKVAISAKEIEEDNIGAQVLGLFTLSTGQDIWNQTN", "Enzyme Activity Endpoint Assay: Fc", 189],
  ["PRT-245 (protein) MVTSVWTKGVTPPANFTQGEDVFHAPYVANQGWYDITKLFNGKDDLLCGAATAGNMLHWWFDQNKDQIKRYLEEHPEKQKINFNGEQMFDVKEAIDTKNHQLDSKLFEYFLEKAFPNLSTKHLGVFPDHVIDMFINGYRLSLLNHGPTPVKEGSKDPRGGIFDAVFTRGDQSKLLTSRHDFKEKNLKEISDLIKKELTEGKALGLSHTYANGRINHVINLWGADFDSNGNLKAIAVTDSDSNASIGMKKYFVGVNSSGKVAISAKEIKEDNIGAQVLGLFTLSTGQDSWNQTN", "Enzyme Activity Endpoint Assay: Fc", 277],
  ["PRT-561 (protein) MANQEIRYSEETPSTITSVWTKGVTPPTQFIYNEDVFHAPYIANQGWYDITKTFNGKDDLLCGAATAGNMLHWWFDQNKEQIENYLKKHPEKQKINFNGEQMFDVKEAIDTKDSQTDSKLFNYFKDKAFPYLSTKHLGVFPDHVIDMFINGYRLSLTNHGPTPVKRQTKDPRGGIFDAVFTRGDQSKLLTSRHDFKEKTLNEISDLIKQELTEGKALGLSHTYANVRINHVINLWGADFDAEGNLEAIYVTDSDSNASIGMKKYYVGVNSAGKVAISAKEIEGDNIGAQVLGLFTLSTGQDIWQQTNLEHHHHHH", "Enzyme Activity Endpoint Assay: Fc", 405]
]}

Data credit: patent US20250027068
